Molecular target: Human MC1R (Homo sapiens, UniProt Q01726)
Construct: endogenous in cells; host or cells: human melanoma cell line HBL
Sequence (Q01726 whole entry): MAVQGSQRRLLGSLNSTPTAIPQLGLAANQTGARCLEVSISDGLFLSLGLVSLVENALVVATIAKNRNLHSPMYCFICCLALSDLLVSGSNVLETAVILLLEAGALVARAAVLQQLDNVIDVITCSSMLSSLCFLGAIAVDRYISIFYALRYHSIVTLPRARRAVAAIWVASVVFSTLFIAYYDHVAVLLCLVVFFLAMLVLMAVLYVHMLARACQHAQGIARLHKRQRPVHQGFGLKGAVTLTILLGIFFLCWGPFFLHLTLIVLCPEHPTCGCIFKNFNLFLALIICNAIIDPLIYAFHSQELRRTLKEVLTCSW
Assay: MCR agonist measurement (cAMP measurement), human MC1R agonist activity in human melanoma cell line HBL
Format: cell-based
Conditions: Intrinsic Activity; vehicle cAMP = 0%, αMSH at 10^-6 M = 100%; HBL cells
recorded_metric: Human MC1R IA % (%)
Express the result in % but write the number alone.

1. COc1ccc([C@@H]2CN(C3CCCC3)C[C@@]2(F)C(=O)N2C[C@H](c3ccc(C(F)(F)F)cc3N3CCC(C(=O)O)CC3)C[C@H]2CC#N)cc1 [Example 300] ... 93
2. COC[C@H]1CN(C(=O)[C@]2(F)CN(c3ccnc(OC)c3)C[C@H]2c2ccc(OC)cc2)C[C@@H]1c1ccc(C(F)(F)F)cc1N1CCC(C(=O)O)CC1 ... 69
3. COc1ccc([C@@H]2CN(C(C)(C)C)C[C@@]2(F)C(=O)N2CCC(c3ccc(C(F)(F)F)cc3OCCCC(=O)NS(C)(=O)=O)CC2)cc1 ... 79

-- ask I am curious: what Human MC1R IA % value has been reported for COC[C@@H]1C[C@@H](c2ccc(C(F)(F)F)cc2N2CCC(C(=O)O)CC2)CN1C(=O)[C@]1(F)CN(c2ccnc(C)n2)C[C@H]1c1ccc(OC)cc1 ?
-- reply 78

-- ask Param item = COC[C@H]1CN(C(=O)[C@]2(F)CN(C3CCCC3)C[C@H]2c2ccc(C)cc2)C[C@@H]1c1ccc(C(F)(F)F)cc1N1CCC(C(=O)O)CC1 ; retrieve measured Human MC1R IA %.
-- reply 74

-- ask Entry under review: COc1ccc([C@@H]2CN(C3CCN(C(CF)CF)CC3)C[C@@]2(F)C(=O)N2CC[C@@H](c3ccc(F)cc3N3CCC(C(=O)O)CC3)C2)cc1 . Reported Human MC1R IA %?
-- reply 75

This collection of values is drawn from patent US9981960B2.
